Recorded measurements of PC-3 PIP Tumor, one per entry
system: PC-3 PIP/flu tumor-bearing mice; assay: Biodistribution studies in PC-3 PIP/flu tumor-bearing mice; conditions: 48 h p.i.

{"compound": "O=C(O)CCC(NC(=O)NC(CCCCNC(=O)C(Cc1ccc2ccccc2c1)NC(=O)C1CCC(n2cc(CC(NC(=O)CN3CCN(CC(=O)O)CCN(CC(=O)O)CCN(CC(=O)O)CC3)C(=O)NC(CCCCNC(=O)CCCc3ccc(I)cc3)C(=O)O)nn2)CC1)C(=O)O)C(=O)O (stereo not shown) [^177Lu-PSMA-ALB-01, metal not drawn]", "PC-3 PIP Tumor, % IA/g": 65.6}
{"compound": "O=C(O)CCC(NC(=O)NC(CCCCNC(=O)C(Cc1ccc2ccccc2c1)NC(=O)C1CCC(CNC(=O)C(CCCCNC(=O)CN2CCN(CC(=O)O)CCN(CC(=O)O)CCN(CC(=O)O)CC2)NC(=O)CC(NC(=O)CC(NC(=O)CCCc2ccc(I)cc2)C(=O)O)C(=O)O)CC1)C(=O)O)C(=O)O (stereo not shown) [^177Lu-PSMA-ALB-05, metal not drawn]", "PC-3 PIP Tumor, % IA/g": 60.3}
{"compound": "O=C(O)CCC(NC(=O)NC(CCCCNC(=O)C(Cc1ccc2ccccc2c1)NC(=O)C1CCC(CNC(=O)C(CCCCNC(=O)CN2CCN(CC(=O)O)CCN(CC(=O)O)CCN(CC(=O)O)CC2)NC(=O)CCCCCCC(=O)NC(CCCCNC(=O)CCCc2ccc(I)cc2)C(=O)O)CC1)C(=O)O)C(=O)O (stereo not shown) [^177Lu-PSMA-ALB-04, metal not drawn]", "PC-3 PIP Tumor, % IA/g": 93.2}
{"compound": "O=C(O)CCC(NC(=O)NC(CCCCNC(=O)C(Cc1ccc2ccccc2c1)NC(=O)C1CCC(CNC(=O)C(CCCCNC(=O)CCCc2ccc(I)cc2)NC(=O)CN2CCN(CC(=O)O)CCN(CC(=O)O)CCN(CC(=O)O)CC2)CC1)C(=O)O)C(=O)O (stereo not shown) [^177Lu-PSMA-ALB-03, metal not drawn]", "PC-3 PIP Tumor, % IA/g": 72.3}

----------
system: PC-3 PIP/flu tumor-bearing mice; test: Biodistribution studies in PC-3 PIP/flu tumor-bearing mice; conditions: 192 h p.i.

{"molecule": "O=C(O)CCC(NC(=O)NC(CCCCNC(=O)C(Cc1ccc2ccccc2c1)NC(=O)C1CCC(n2cc(CC(NC(=O)CN3CCN(CC(=O)O)CCN(CC(=O)O)CCN(CC(=O)O)CC3)C(=O)NC(CCCCNC(=O)CCCc3ccc(I)cc3)C(=O)O)nn2)CC1)C(=O)O)C(=O)O (stereo not shown) [^177Lu-PSMA-ALB-01, metal not drawn]", "Bone (% IA/g)": 0.86}
{"molecule": "O=C(O)CCC(NC(=O)NC(CCCCNC(=O)C(Cc1ccc2ccccc2c1)NC(=O)C1CCC(CNC(=O)C(CCCCNC(=O)CCCc2ccc(I)cc2)NC(=O)CN2CCN(CC(=O)O)CCN(CC(=O)O)CCN(CC(=O)O)CC2)CC1)C(=O)O)C(=O)O (stereo not shown) [^177Lu-PSMA-ALB-03, metal not drawn]", "Bone (% IA/g)": 0.83}
{"molecule": "O=C(O)CCC(NC(=O)NC(CCCCNC(=O)C(Cc1ccc2ccccc2c1)NC(=O)C1CCC(CNC(=O)C(CCCCNC(=O)CN2CCN(CC(=O)O)CCN(CC(=O)O)CCN(CC(=O)O)CC2)NC(=O)CCCCCCC(=O)NC(CCCCNC(=O)CCCc2ccc(I)cc2)C(=O)O)CC1)C(=O)O)C(=O)O (stereo not shown) [^177Lu-PSMA-ALB-04, metal not drawn]", "Bone (% IA/g)": 1.17}
{"molecule": "O=C(O)CCC(NC(=O)NC(CCCCNC(=O)C(Cc1ccc2ccccc2c1)NC(=O)C1CCC(CNC(=O)C(CCCCNC(=O)CN2CCN(CC(=O)O)CCN(CC(=O)O)CCN(CC(=O)O)CC2)NC(=O)CC(NC(=O)CC(NC(=O)CCCc2ccc(I)cc2)C(=O)O)C(=O)O)CC1)C(=O)O)C(=O)O (stereo not shown) [^177Lu-PSMA-ALB-05, metal not drawn]", "Bone (% IA/g)": 0.26}

From: patent US11629201B2
